Test system: HT-29 cells
Assay: HT29 Cells 0FBS Assay In Vitro (TNF-α/SMAC mimetic/zVAD-FMK induced necroptosis, CellTiter-Glo cell viability)
Assay type: cell-based
Conditions: Homo sapiens; HT-29 cells, FBS free medium, TNF-α (10 ng/ml), SMAC mimetic (6 uM), zVAD-FMK (10 μM), 20 hours; geometric mean EC50; read-out: Cell activity (EC50) of Compounds 117-281
pEC50: −log10 of the molar value.
Measured parameter: pEC50

COC(=O)c1cc(C)n(-c2cc(OC3CN(C(=O)N4N=CC[C@H]4c4cc(F)cc(F)c4)C3)c(F)cn2)c1C [compound 129] = 7.00 to 10.00
Cc1nn(-c2cc(OC3CN(C(=O)N4N=CC[C@H]4c4cc(F)cc(F)c4)C3)c(F)cn2)c(C)c1C(=O)N(C)C [compound 192] = 7.00 to 10.00
COCC(=O)Nc1cnn(C)c1-c1cc(OC2CN(C(=O)N3N=CC[C@H]3c3cc(F)cc(F)c3)C2)c(F)cn1 [compound 121] = 7.00 to 10.00

For the next question, use this molecule.
What does the record list as pEC50 for Cc1c(-c2cc(OC3CN(C(=O)N4N=CC[C@H]4c4cc(F)cc(F)c4)C3)c(F)cn2)c(CO)nn1CC1COC1 [compound 169] ?
5.00 to 6.00
